Origin of values: ChEMBL document CHEMBL5291721

# target under test: Amine oxidase [flavin-containing] A (Homo sapiens, UniProt P21397); further: assay procedure not described here
# Sequence (P21397 whole entry): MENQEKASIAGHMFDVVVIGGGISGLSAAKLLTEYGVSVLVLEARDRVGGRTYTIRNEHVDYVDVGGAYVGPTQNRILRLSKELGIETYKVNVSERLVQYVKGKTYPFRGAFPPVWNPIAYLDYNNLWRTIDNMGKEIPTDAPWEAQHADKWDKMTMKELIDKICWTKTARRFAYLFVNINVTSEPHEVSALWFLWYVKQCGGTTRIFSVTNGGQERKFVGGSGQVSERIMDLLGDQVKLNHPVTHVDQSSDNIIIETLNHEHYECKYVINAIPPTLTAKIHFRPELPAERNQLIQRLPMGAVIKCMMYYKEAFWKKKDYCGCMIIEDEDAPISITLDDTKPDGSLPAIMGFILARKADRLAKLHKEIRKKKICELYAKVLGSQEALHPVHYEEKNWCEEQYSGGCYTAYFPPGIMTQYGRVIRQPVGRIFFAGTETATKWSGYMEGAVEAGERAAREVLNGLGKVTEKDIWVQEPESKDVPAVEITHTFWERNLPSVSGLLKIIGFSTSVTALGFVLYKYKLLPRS
# Type: functional
test readout: AC50

{"columns": ["compound", "test readout", "recorded measurement"],
 "data": [
  ["N#C[C@@H]1CCCN1C(=O)CNC12CC3CC(CC(O)(C3)C1)C2", "AC50", "> 30 µM"],
  ["CNCCC=C1c2ccccc2CCc2ccccc21", "AC50", "> 30 µM"],
  ["C[C@@H]1CCC[C@H](C)N1NC(=O)c1ccc(Cl)c(S(N)(=O)=O)c1 [CLOPAMIDE]", "AC50", "> 30 µM"],
  ["CCCNC(C)C(=O)Nc1ccccc1C (centres undefined)", "AC50", "> 30 µM"],
  ["O=C1NC(=O)C(c2ccccc2)(c2ccccc2)N1", "AC50", "> 30 µM"],
  ["Nc1nc2c(c(=O)[nH]1)N(C=O)C(CNc1ccc(C(=O)N[C@@H](CCC(=O)O)C(=O)O)cc1)CN2 (some centres undefined)", "AC50", "> 30 µM"],
  ["COc1ccc(Cc2nccc3cc(OC)c(OC)cc23)cc1OC", "AC50", "> 30 µM"],
  ["CC1(C)C(C=C(Cl)Cl)C1C(=O)OCc1cccc(Oc2ccccc2)c1 (centres undefined)", "AC50", "> 10 µM"],
  ["CCN(CC)C(=O)C1CN2CCc3cc(OC)c(OC)cc3C2CC1OC(C)=O (centres undefined) [BENZQUINAMIDE]", "AC50", "> 30 µM"]
]}

====

# target under test: Kappa-type opioid receptor (Homo sapiens, UniProt P41145); further: assay procedure not described here
# Sequence (P41145 whole entry): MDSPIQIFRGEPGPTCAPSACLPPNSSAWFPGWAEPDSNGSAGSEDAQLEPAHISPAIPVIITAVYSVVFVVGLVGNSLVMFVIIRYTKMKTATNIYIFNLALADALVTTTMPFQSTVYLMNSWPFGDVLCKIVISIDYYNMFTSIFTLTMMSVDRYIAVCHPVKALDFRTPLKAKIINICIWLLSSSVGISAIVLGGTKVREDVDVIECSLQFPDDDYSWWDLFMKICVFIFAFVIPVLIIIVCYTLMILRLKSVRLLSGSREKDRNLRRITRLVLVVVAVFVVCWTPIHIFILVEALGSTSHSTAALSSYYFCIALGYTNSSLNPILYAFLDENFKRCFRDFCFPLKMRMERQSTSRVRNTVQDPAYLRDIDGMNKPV
test readout: AC50

{"columns": ["compound", "test readout", "recorded measurement"],
 "data": [
  ["Cc1cc2nc3c(=O)[nH]c(=O)nc-3n(C[C@H](O)[C@H](O)[C@H](O)COP(=O)(O)O)c2cc1C [RIBOFLAVIN 5'-PHOSPHATE]", "AC50", "> 30 µM"],
  ["CC1(C)S[C@@H]2[C@H](NC(=O)[C@H](N)c3ccc(O)cc3)C(=O)N2[C@H]1C(=O)O", "AC50", "> 30 µM"],
  ["COc1ccc(Cc2nccc3cc(OC)c(OC)cc23)cc1OC", "AC50", "> 30 µM"],
  ["CO[C@@]1(NC(=O)CSCC#N)C(=O)N2C(C(=O)O)=C(CSc3nnnn3C)CS[C@@H]21", "AC50", "> 30 µM"]
]}
